Parameter: pIC50. Scope: all listed entries.
# Tested on: M. tuberculosis H37Rv growth inhibition with meropenem
# PROCEDURE_TEXT: dose response, H37Rv, with and without meropenem (AID 434987);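 further: growth over 7 days at 37 °C before Alamar Blue read on day 9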
# CONDITIONS_USED: M. tuberculosis H37Rv growth inhibition; measured here: IC50 without meropenem
pIC50: −log10 of the molar value.

Worked set:
COc1ccc(C2c3c(C)nn(-c4ccccc4)c3NC(=O)N2c2ccccc2)cc1 (stereo unspecified) | < 4.00
O=C(O)CCN1C(=O)/C(=C/c2ccc(-c3nc4ccccc4s3)o2)SC1=S | 4.22
Nc1c(Cl)cc(-c2csc(N3CCCC3c3nc4cc(Cl)c(N5CCCCC5)cc4n3CCCO)n2)cc1Cl (stereo unspecified) | < 4.00

Enquiry: # return recorded pIC50 for input CC(/C=N/NC(=O)c1cc(C(C)(C)C)[nH]n1)=C\c1ccccc1
Return: < 4.00

Enquiry: # return recorded pIC50 for input C=CCSc1nccc(-c2nn(-c3ccc(C)cc3)ccc2=O)n1
Return: < 4.00

Enquiry: # return recorded pIC50 for input O=c1[nH]c(CSc2nnc3ccccn23)nc2ccccc12
Return: < 4.00

----------
# Tested on: M. tuberculosis H37Rv growth inhibition with meropenem
# PROCEDURE_TEXT: dose response, H37Rv, with and without meropenem (AID 434987);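 further: growth over 7 days at 37 °C before Alamar Blue read on day 9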
# CONDITIONS_USED: M. tuberculosis H37Rv growth inhibition; measured here: IC50 without meropenem
pIC50: −log10 of the molar value.
MEASURED_PROPERTY: pIC50

Worked set:
O=C(NCc1nc2ncc(Br)cc2[nH]1)c1ccccc1 | 4.03
Cc1ccsc1C(=O)NNC(=O)c1csc(N2CCOCC2)n1 | < 4.00
Cc1cc(N2CCCCCC2)nc(-c2ccccc2O)n1 | 4.04
Cc1ccccc1OCC(=O)N/N=C/c1cccc(Oc2ccc([N+](=O)[O-])cc2[N+](=O)[O-])c1 | 5.37
CC(=O)Nc1scc(C)c1-c1nc2ccccc2s1 | < 4.00

Enquiry: # return recorded pIC50 for input CCN(CC)c1ccc(C=N/C(C#N)=C(\N)C#N)cc1
Return: < 4.00

Enquiry: # return recorded pIC50 for input Cc1nn(C)c(C(=O)NC(=S)Nc2ccccc2Br)c1Cl
Return: < 4.00

Enquiry: # return recorded pIC50 for input COc1cc(NC(=O)c2ccc(Cl)cc2)c(OC)cc1NC(=O)CN1CCOCC1
Return: < 4.00

Enquiry: # return recorded pIC50 for input O=C(/C=C/c1cccnc1)c1ccc(O)cc1
Return: 4.47

Enquiry: # return recorded pIC50 for input O=c1[nH]c(CN(CCO)CCO)nc2c1C1(CCCCC1)Cc1ccccc1-2
Return: < 4.00

Enquiry: # return recorded pIC50 for input COc1ccc(C(=O)n2c(SC)nc3cc4c(cc32)OCCO4)cc1
Return: < 4.00

----------
# System: M. tuberculosis H37Rv growth inhibition with meropenem
# PROCEDURE_TEXT: dose response, H37Rv, with and without meropenem (AID 434987);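 further: growth over 7 days at 37 °C before Alamar Blue read on day 9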
# CONDITIONS_USED: M. tuberculosis H37Rv growth inhibition; measured here: IC50 without meropenem
pIC50: −log10 of the molar value.
MEASURED_PROPERTY: pIC50

O=C(CCS(=O)(=O)c1ccc(F)cc1)Nc1nnc(-c2cccs2)o1 | 4.33
S=c1nccc(-c2ccc3c(c2)CCO3)[nH]1 | < 4.00
Cc1nn(C)c(C)c1NC(=O)CCCSc1nc(-c2ccco2)cc(C(F)(F)F)n1 | < 4.00

Enquiry: # return recorded pIC50 for input COC(=O)CNC(c1ccccc1Cl)c1cc(Br)ccc1NC(=O)CCN1CCOCC1 (stereo not given)
Return: 4.31

Enquiry: # return recorded pIC50 for input CC(=O)Nc1ccc(Nc2ncc([N+](=O)[O-])c(Nc3ccc(NC(C)=O)cc3)n2)cc1
Return: 5.61
